Could you please report measured Ventricular EC25 for the items listed next?
Target: Porcine ventricle myofibrils (ventricular myosin ATPase) (Sus scrofa)
Construct: Myofibrils from porcine cardiac muscle was isolated from the left ventricle of Yucatan minipigs; tissue Exemplar Genetics; host or cells: left ventricle of Yucatan minipigs, myofibrils prepared in house
Sequence (P79293 whole entry): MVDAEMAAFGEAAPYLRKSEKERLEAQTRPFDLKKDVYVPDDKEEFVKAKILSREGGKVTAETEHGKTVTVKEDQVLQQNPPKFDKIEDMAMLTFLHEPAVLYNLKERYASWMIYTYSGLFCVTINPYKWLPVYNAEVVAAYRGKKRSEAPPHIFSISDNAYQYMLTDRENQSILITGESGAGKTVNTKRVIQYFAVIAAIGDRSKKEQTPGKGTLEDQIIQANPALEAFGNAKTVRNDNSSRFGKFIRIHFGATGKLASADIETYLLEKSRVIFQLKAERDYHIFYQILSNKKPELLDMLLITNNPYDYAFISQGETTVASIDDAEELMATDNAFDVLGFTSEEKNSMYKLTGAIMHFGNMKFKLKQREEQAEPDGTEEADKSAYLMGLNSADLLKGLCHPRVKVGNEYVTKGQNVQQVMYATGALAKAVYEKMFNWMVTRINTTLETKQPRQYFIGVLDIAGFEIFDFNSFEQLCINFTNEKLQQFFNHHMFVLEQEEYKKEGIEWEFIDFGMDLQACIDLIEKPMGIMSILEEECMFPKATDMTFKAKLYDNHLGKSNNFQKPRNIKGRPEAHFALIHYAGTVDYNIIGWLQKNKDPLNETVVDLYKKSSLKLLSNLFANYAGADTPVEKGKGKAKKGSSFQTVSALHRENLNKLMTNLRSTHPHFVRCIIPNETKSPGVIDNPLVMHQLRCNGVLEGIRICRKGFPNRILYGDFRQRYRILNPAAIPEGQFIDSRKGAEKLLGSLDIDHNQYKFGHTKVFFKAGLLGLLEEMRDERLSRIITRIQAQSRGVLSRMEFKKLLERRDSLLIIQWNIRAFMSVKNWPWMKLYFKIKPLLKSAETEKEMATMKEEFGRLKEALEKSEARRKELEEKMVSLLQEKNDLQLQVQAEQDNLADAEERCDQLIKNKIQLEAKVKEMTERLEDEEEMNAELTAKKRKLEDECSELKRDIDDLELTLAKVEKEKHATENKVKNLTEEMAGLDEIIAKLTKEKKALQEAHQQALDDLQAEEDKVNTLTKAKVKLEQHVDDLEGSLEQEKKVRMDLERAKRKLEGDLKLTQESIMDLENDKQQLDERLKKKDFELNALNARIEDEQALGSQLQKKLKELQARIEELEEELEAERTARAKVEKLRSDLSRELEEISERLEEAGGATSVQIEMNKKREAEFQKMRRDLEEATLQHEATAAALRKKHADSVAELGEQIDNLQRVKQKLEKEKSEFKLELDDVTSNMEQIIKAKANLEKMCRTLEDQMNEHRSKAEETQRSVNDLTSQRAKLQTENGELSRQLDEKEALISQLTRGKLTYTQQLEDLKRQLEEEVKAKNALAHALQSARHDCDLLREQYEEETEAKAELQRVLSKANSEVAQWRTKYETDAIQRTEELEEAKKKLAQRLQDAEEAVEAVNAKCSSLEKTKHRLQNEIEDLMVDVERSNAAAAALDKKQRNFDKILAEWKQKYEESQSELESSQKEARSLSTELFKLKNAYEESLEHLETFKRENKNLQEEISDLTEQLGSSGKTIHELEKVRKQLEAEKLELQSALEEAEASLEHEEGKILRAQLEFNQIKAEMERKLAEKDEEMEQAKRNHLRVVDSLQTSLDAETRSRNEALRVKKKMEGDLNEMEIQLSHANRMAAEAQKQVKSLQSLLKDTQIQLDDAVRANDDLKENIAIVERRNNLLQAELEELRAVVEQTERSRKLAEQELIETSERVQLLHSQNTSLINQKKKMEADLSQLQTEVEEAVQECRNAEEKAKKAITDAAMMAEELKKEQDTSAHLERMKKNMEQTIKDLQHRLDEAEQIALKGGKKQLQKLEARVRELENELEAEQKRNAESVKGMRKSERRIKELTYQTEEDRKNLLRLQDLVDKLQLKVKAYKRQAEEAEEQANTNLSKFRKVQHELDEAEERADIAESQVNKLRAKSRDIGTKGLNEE
Experiment: Myofibril ATPase assay, porcine ventricle myofibrils
Type: biochemical, porcine (Yucatan minipigs)
Settings: Y75 value (no ‡ mark); porcine ventricle myofibrils
Protocol: Example 1. Myofibril ATPase Assay Myofibril ATPase assays are known in the art to be useful in evaluating small molecules for the treatment of HCM and other cardiac indications. Myosin ATPase activity is assessed by using a coupled reaction system, in which ADP generated by the myosin ATPase function is coupled to the disappearance of NADH through the pyruvate kinase/lactate dehydrogenase (PK-LDH) system. […]
Write down the numeric answer in µM and omit the unit.

Exercise: Look up Ventricular EC25 for this compound: C[C@H](NC(=O)Cc1cc2ccc(F)cc2[nH]c1=O)c1ncc(C#N)cn1 (single isomer, unassigned) [compound 2034]
Key: 100.00

Exercise: Using the record for Cc1c(CC(=O)N[C@H](C)c2ncc(C#N)cn2)c(=O)[nH]c2ccc(F)c(F)c12 [compound 1123] , report its Ventricular EC25.
Key: 1.37

Exercise: Requested field: Ventricular EC25. Item: Cc1c(CC(=O)N[C@H](C)c2ncc(C#N)cc2F)c(=O)[nH]c2cccc(F)c12 [compound 51]
Key: 0.40

Exercise: // Ventricular EC25 lookup, key: Cc1c(F)ccc2[nH]c(=O)c(CC(=O)N[C@@H](C)c3ccc(C#N)cc3F)c(O)c12 [compound 20]
Key: 0.31

Exercise: Query (compound): C[C@@H](NC(=O)Cc1cc2ccc(F)cc2[nH]c1=O)c1ncc(C#N)cn1 (single isomer, unassigned) [compound 2033] ; field requested: Ventricular EC25
Key: 100.00

Exercise: GET /values?readout=Ventricular EC25&item= Cc1cc([C@@H](C)NC(=O)Cc2c(O)c3c(C)c(F)ccc3[nH]c2=O)ncc1F [compound 1116]
Key: 100.00

Exercise: Please give the measured Ventricular EC25 for this compound: C[C@@H](NC(=O)Cc1c(C2CC2)c2cc(F)ccc2[nH]c1=O)c1ccc(C#N)nn1 (single isomer, unassigned) [compound 2053]
Key: 100.00

----------
Test system: Porcine atria myofibrils (atrial myosin ATPase)
Assay: Myofibril ATPase assay, porcine atria myofibrils
Assay type: biochemical
Settings: Y75 value (no ‡ mark); porcine atria myofibrils
So I've got a bunch of compounds here, and I need their Atrial EC25 values.
Write down the value, and be sure its unit follows.

Exercise: Entry Cc1c(CC(=O)N[C@@H](C)c2ncc(C#N)cc2F)c(=O)[nH]c2ccc(F)c(F)c12 : reported Atrial EC25 = ?
Key: 0.08 µM

Exercise: Would you mind telling me what Atrial EC25 value was observed for Cc1c(C2(C(=O)N[C@@H](C)c3ncc(C#N)cc3F)CC2)c(=O)[nH]c2ccc(F)c(C#N)c12 (single isomer, unassigned) ?
Key: 0.16 µM

Exercise: Item C[C@H](NC(=O)Cc1cc2cc(O)ccc2[nH]c1=O)c1ccc(F)cc1F has what recorded Atrial EC25?
Key: 64.80 µM

Exercise: Any idea what Atrial EC25 was measured for C[C@H](NC(=O)C(F)(F)c1cc2c(F)c(F)ccc2[nH]c1=O)c1cccc(C#N)n1 (single isomer, unassigned) ?
Key: 100.00 µM

Exercise: Please look up its Atrial EC25: C[C@H](NC(=O)Cc1c(C2CC2)c2cc(F)ccc2[nH]c1=O)c1ncc(C#N)cc1F
Key: 0.47 µM

Exercise: Need Atrial EC25, item Cc1c(C(F)(F)C(=O)N[C@@H](C)c2nccc(C#N)n2)c(=O)[nH]c2ccc(F)cc12 (single isomer, unassigned)
Key: 4.45 µM

Exercise: Give its Atrial EC25 value. Item: Cc1c(C(C)C(=O)N[C@@H](C)c2ccc(F)cc2F)c(=O)[nH]c2ccc(F)cc12 (stereo partly shown)
Key: 0.19 µM
